# target-or-test-system: Fructose-bisphosphate aldolase, glycosomal (Trypanosoma brucei brucei)
# Sequence (P07752 whole entry): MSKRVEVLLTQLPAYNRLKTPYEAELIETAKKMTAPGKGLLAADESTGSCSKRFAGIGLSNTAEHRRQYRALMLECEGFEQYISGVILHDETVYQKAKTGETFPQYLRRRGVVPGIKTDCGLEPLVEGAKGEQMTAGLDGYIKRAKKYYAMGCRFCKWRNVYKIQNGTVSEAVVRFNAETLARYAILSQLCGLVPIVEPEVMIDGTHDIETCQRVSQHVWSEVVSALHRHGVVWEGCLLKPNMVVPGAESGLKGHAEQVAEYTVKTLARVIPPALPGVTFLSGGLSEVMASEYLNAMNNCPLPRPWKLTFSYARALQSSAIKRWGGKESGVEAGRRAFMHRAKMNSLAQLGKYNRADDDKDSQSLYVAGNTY
# assay-remarks: Inhibition of His-tagged recombinant Trypanosoma brucei fructose bis-phosphate aldolase expressed in Escherichia coli using FBP as substrate after 5 to 15 mins
experimental-endpoint: IC50 (µM)

entry-smiles	unit	IC50
O=P(O)(O)OC[C@@H](O)[C@@H](O)[C@H](O)[C@H](O)COP(=O)(O)O	µM	9.4

(1) CCCCC[C@@](O)(COP(=O)(O)O)[C@@H](O)[C@H](O)[C@H](O)COP(=O)(O)O
(2) CCO[C@H](COP(=O)(O)O)[C@@H](O)[C@H](O)[C@H](O)COP(=O)(O)O
(3) O=P(O)(O)OC[C@@H](O)[C@@H](O)[C@H](O)[C@@H](COP(=O)(O)O)OCCCc1ccccc1
Ask: Arrange by IC50, high to low. Response field: labels, in requested order.
Result: 2, 3, 1
(2: 51 µM, 3: 31 µM, 1: 15 µM)
